# assay-system: muscarinic receptors
# test-details: 3H-oxotremorine-M binding assay
# protocol-conditions: 3 nM 3H-oxotremorine-M, rat cerebral cortical membranes, 15 min 25° C.; read-out: Inhibition of 3H-Oxo
reported-endpoint: pIC50
Hey, just a heads up that pIC50 is the negative log base 10 of the concentration in molar.

compound | pIC50
CC(C)CCCSc1nsnc1[C@H]1CN2CCC[C@H]1C2 [Compound 157] | 8.00

Exercise: Identify the reported pIC50 for the following entry. CCCCSc1nsnc1C1CN2CCCC1C2 (single isomer, unassigned) [Compound 112]
Solution: 9.22

Exercise: Identify the reported pIC50 for the following entry. CCCSc1nsnc1C1CN2CCCC1C2 (single isomer, unassigned; (+)) [Compound 113]
Solution: 9.10

Exercise: Identify the reported pIC50 for the following entry. FC(F)(F)CCCSc1nsnc1C1CN2CCCC1C2 (single isomer, unassigned; (+)) [Compound 167]
Solution: 9.12

* * *

# assay-system: muscarinic receptors
# test-details: 3H-oxotremorine-M binding assay
# protocol-conditions: 3 nM 3H-oxotremorine-M, rat cerebral cortical membranes, 15 min 25° C.; read-out: Inhibition of 3H-Oxo
pIC50: −log10 of the molar value.
# binarize pIC50: threshold 9 inclusive, high side label 1, low side label 0

Below are worked cases with known answers.
compound | group-label
CSc1nsnc1C1CN2CCC1CC2.O=C(O)C(=O)O (centres unmarked) [Compound 131, oxalate] | label 0
CCCSc1nsnc1C1CN2CCCC1C2 (single isomer, unassigned) [Compound 114] | label 1
CCCCCCOc1nsnc1[C@H]1CN2CCC[C@H]1C2 (relative stereo) | label 0
CC(C)CCCSc1nsnc1[C@H]1CN2CCC[C@H]1C2 (relative stereo) [Compound 76] | label 0

Next compound, please.
Exercise: Is it the case that N#CCSc1nsnc1C1CN2CCC1CC2.O=C(O)C(=O)O (centres unmarked) [Compound 103, oxalate] has pIC50 reaching or exceeding 9?
Solution: label 0

* * *

Each entry below carries its recorded pIC50.
# assay-system: muscarinic receptors
# test-details: 3H-oxotremorine-M binding assay
# protocol-conditions: 3 nM 3H-oxotremorine-M, rat cerebral cortical membranes, 15 min 25° C.; read-out: Inhibition of 3H-Oxo
Counter-ions that a name gives are not always drawn.
Hey, just a heads up that pIC50 is the negative log base 10 of the concentration in molar.

Illustrative cases are given below, each with its answer.
molecule | assay-system | reported-endpoint | quantitative-readout
c1ccc(OCCSc2nsnc2[C@H]2CN3CCC[C@H]2C3)cc1 (relative stereo) | muscarinic receptors | pIC50 | 8.89
CCOc1nsnc1C1CN2CCC1CC2.O=C(O)/C=C/C(=O)O (centres unmarked) [Compound 9, fumarate] | muscarinic receptors | pIC50 | 8.68
CCCCSc1nsnc1C1CN2CCC1CC2.O=C(O)C(O)C(O)C(=O)O (single isomer, unassigned) | muscarinic receptors | pIC50 | 9.40
Cc1nnc(SCCCCSc2nsnc2C2CN3CCC2CC3)s1 (centres unmarked) [Compound 107, oxalate] | muscarinic receptors | pIC50 | 9.00
CCCCCCOc1nsnc1C1CN2CCC1CC2.O=C(O)/C=C/C(=O)O (centres unmarked) [Compound 11, fumarate] | muscarinic receptors | pIC50 | 8.22
CCCCOc1nsnc1[C@H]1CN2CCC[C@H]1C2 (relative stereo) | muscarinic receptors | pIC50 | 9.05
CCCCSc1nsnc1[C@H]1CN2CCC[C@H]1C2 (relative stereo) | muscarinic receptors | pIC50 | 9.40

Exercise: Find pIC50 for CCCSc1nsnc1C1CN2CCC1CC2.O=C(O)C(=O)O (centres unmarked) [Compound 53, oxalate] on muscarinic receptors and write it down.
Solution: 9.05
